Assay: Study A16 Part 1: PK of single ascending oral doses of fospropofol disodium (200 to 2000 mg), fasted healthy adults
Type: in vivo, human
Conditions: both sexes, human, plasma; oral fospropofol disodium 2000 mg; mean
Property name: half-life (h)
A number alone suffices; assume h.

Sure, the documented half-life for `CC(C)c1cccc(C(C)C)c1O` is 1.96

----------
Assay: Study No. 15-4 toxicokinetics of fospropofol and propofol in plasma
Assay type: in vivo, Beagle dogs
Conditions: female, beagle, dog, plasma, po, 50 mg/kg, oral gavage fospropofol disodium; Female; 50 mg/kg; Day 14; read-out: Fospropofol AUC0-6 hr
Property name: AUC(0-t) (ng·h/mL)
A number alone suffices; assume ng·h/mL.

Sure, the documented AUC(0-t) for `CC(C)c1cccc(C(C)C)c1OCOP(=O)(O)O` is 5730
